Give measured herbicidal rate, Chenopodium album for each item. Keep answers brief.
Tested on: Chenopodium album
Assay: Test Example 3: herbicidal effect test by treatment of dry field farming soil (one day after seeding)
Format: in vivo
Conditions: 120 g/10a active ingredient, evaluated 14 days after treatment
Protocol: This test was conducted in a double system per one agent solution concentration area, and the herbicidal rates (%) were determined by the following equation (Math. 1) on 14 days after the treatment with the agents. […] Pots with a size of 36 cm^2 were filled with a dry field farming soil (alluvium). […] The herbicidal effects were evaluated by the same standard as that in Test Example 1 on 14 days after the treatment with the agents. […]
One number for each entry, in %.

COCC(C)n1oc(=O)c(Cc2ccccc2N(C(=O)OCC(C)C)S(=O)(=O)C(F)(F)F)c1C (stereo not shown) : 90
Cc1c(Cc2ccccc2N(C(=O)c2ccccc2)S(=O)(=O)C(F)(F)F)c(=O)on1C(C)(C)C : 90

Field: herbicidal rate, Chenopodium album. Fill in for each record below.
1. CCOC(=O)N(c1ccccc1Cc1c(C)n(CC(C)(C)C)oc1=O)S(=O)(=O)C(F)(F)F
2. Cc1ccc(C(C)n2oc(=O)c(Cc3ccccc3NS(=O)(=O)C(F)(F)F)c2C)cc1 (stereo not shown)

90
40

* * *

tested on: Chenopodium album; assay: Test Example 3: herbicidal effect test by treatment of dry field farming soil (one day after seeding); assay type: in vivo; conditions: 120 g/10a active ingredient, evaluated 14 days after treatment
For each entry below, report its herbicidal rate, Chenopodium album value.
Numbers only, in %.

# count of solved cases: 5
Cc1c(Cc2ccccc2N(S(C)(=O)=O)S(=O)(=O)C(F)(F)F)c(=O)on1CC(C)C : 80
Cc1c(Cc2ccccc2N(C(=O)OCC(C)C)S(=O)(=O)C(F)(F)F)c(=O)on1C(C)(C)C : 90
CCCCCC(c1ccccc1)n1oc(=O)c(Cc2ccccc2NS(=O)(=O)C(F)(F)F)c1C (stereo not shown) : 40
Cc1c(Cc2ccccc2N(C(=O)C2CC2)S(=O)(=O)C(F)(F)F)c(=O)on1CC(C)(C)C : 90
C=CCn1oc(=O)c(Cc2ccccc2N(S(=O)(=O)C(F)(F)F)S(=O)(=O)C(F)(F)F)c1C : 80

// for each molecule below, give its herbicidal rate, Chenopodium album
1. Cc1c(Cc2ccccc2N(S(=O)(=O)C(F)(F)F)S(=O)(=O)C(F)(F)F)c(=O)on1CC1(C)CC1
2. CCC(C)n1oc(=O)c(Cc2ccccc2N(C(=O)COC)S(=O)(=O)C(F)(F)F)c1C (stereo not shown)

1: 40; 2: 90

* * *

Consider the following molecules; for each one, report its Herbicidal rate (%) Scirpus juncoides.
test system: Scirpus juncoides; test: Test Example 2: herbicidal effect test by treatment during growing period in paddy rice cultivation (seven days after seeding); format: in vivo; conditions: 120 g/10a active ingredient, assessed 14 days after treatment, dry weight vs untreated area
One number for each entry, in %.

Cc1c(Cc2cccc(Cl)c2NS(=O)(=O)C(F)(F)F)c(=O)on1C(C)C : 80
Cc1c(Cc2ccccc2N(C(=O)OCc2ccccc2)S(=O)(=O)C(F)(F)F)c(=O)on1CC(C)C : 90
Cc1c(Cc2ccccc2N(C(=O)OCC(C)C)S(=O)(=O)C(F)(F)F)c(=O)on1C(C)c1ccccc1 (stereo not drawn) : 90
CSCCCn1oc(=O)c(Cc2ccccc2NS(=O)(=O)C(F)(F)F)c1C : 90
CC(C)c1c(Cc2ccccc2N(S(=O)(=O)C(F)(F)F)S(=O)(=O)C(F)(F)F)c(=O)on1C(C)C : 60

Please look at the items below and tell me Herbicidal rate (%) Scirpus juncoides for each one, in order.
1. Cc1c(Cc2ccccc2NS(=O)(=O)C(F)(F)F)c(=O)on1CC1CCCO1 (stereo not drawn)
2. CCC(C)n1oc(=O)c(Cc2ccccc2N(C(=O)CC(C)C)S(=O)(=O)C(F)(F)F)c1C (stereo not drawn)
3. C#CCn1oc(=O)c(Cc2ccccc2NS(=O)(=O)C(F)(F)F)c1C
4. C=CC(C)n1oc(=O)c(Cc2ccccc2N(S(=O)(=O)C(F)(F)F)S(=O)(=O)C(F)(F)F)c1C (stereo not drawn)
5. Cc1c(Cc2ccccc2N(C(=O)OCC(C)C)S(=O)(=O)C(F)(F)F)c(=O)on1CC(C)C
6. Cc1c(Cc2ccccc2N(S(=O)(=O)C(F)(F)F)S(=O)(=O)C(F)(F)F)c(=O)on1Cc1ccccc1F
7. Cc1c(Cc2ccccc2N(S(=O)(=O)C(F)(F)F)S(=O)(=O)C(F)(F)F)c(=O)on1Cc1ccc(Br)cc1

[90, 90, 80, 90, 90, 90, 60]

* * *

Test system: Chenopodium album
Assay: Test Example 3: herbicidal effect test by treatment of dry field farming soil (one day after seeding)
Type: in vivo
Conditions: 120 g/10a active ingredient, evaluated 14 days after treatment
Description: This test was conducted in a double system per one agent solution concentration area, and the herbicidal rates (%) were determined by the following equation (Math. 1) on 14 days after the treatment with the agents. […] Pots with a size of 36 cm^2 were filled with a dry field farming soil (alluvium). […] The herbicidal effects were evaluated by the same standard as that in Test Example 1 on 14 days after the treatment with the agents. […]
quantity-kind: herbicidal rate, Chenopodium album (%)
Answers are plain numbers, in %.

CCC(C)n1oc(=O)c(Cc2ccccc2N(C(=O)CC(C)C)S(=O)(=O)C(F)(F)F)c1C (stereo not drawn) [Compound 1-352] : 90
Cc1c(Cc2ccccc2N(C(=O)CC(C)C)S(=O)(=O)C(F)(F)F)c(=O)on1CC(C)(C)C [Compound 1-355] : 90

Now for a further compound.
What the record says about COCC(C)n1oc(=O)c(Cc2ccccc2N(C(=O)CC(C)C)S(=O)(=O)C(F)(F)F)c1C (stereo not drawn) [Compound 1-357] : herbicidal rate, Chenopodium album is 90

* * *

tested on: broad leaf weeds (Lindernia pyxidaria and Monochoria vaginalis); experiment: Test Example 1: herbicidal effect test by treatment of rice paddy soil (immediately after seeding); assay type: in vivo; conditions: Monochoria vaginalis, 120 g/10a active ingredient, dry weight vs untreated area, 14 days after treatment
Consider the following molecules; for each one, report its Herbicidal rate (%) Monochoria vaginalis.
Numbers only, in %.

Cc1c(Cc2ccccc2N(S(=O)(=O)C(F)(F)F)S(=O)(=O)C(F)(F)F)c(=O)on1C(C)Cc1ccccc1 (stereo not drawn) : 80
Cc1c(Cc2ccccc2N(C(=O)CC(C)C)S(=O)(=O)C(F)(F)F)c(=O)on1C(C)c1ccccc1 (stereo not drawn) : 90
Cc1c(Cc2ccccc2N(S(=O)(=O)C(F)(F)F)S(=O)(=O)C(F)(F)F)c(=O)on1Cc1ccc(C#N)cc1 : 90
CCn1oc(=O)c(Cc2ccccc2N(S(=O)(=O)C(F)(F)F)S(=O)(=O)C(F)(F)F)c1C : 70
Cc1c(Cc2ccccc2NS(=O)(=O)C(F)(F)F)c(=O)on1CCCc1ccccc1 : 60
Cc1c(Cc2ccccc2N(C(=O)C2CC2)S(=O)(=O)C(F)(F)F)c(=O)on1C(C)c1ccccc1 (stereo not drawn) : 90
COC(=O)N(c1ccccc1Cc1c(C)n(Cc2ccc(F)cc2)oc1=O)S(=O)(=O)C(F)(F)F : 100
CCC(=O)N(c1ccccc1Cc1c(C)n(CC(C)(C)C)oc1=O)S(=O)(=O)C(F)(F)F : 90
CSCCn1oc(=O)c(Cc2ccccc2N(S(=O)(=O)C(F)(F)F)S(=O)(=O)C(F)(F)F)c1C : 100
CCCCCCCCn1oc(=O)c(Cc2ccccc2N(S(=O)(=O)C(F)(F)F)S(=O)(=O)C(F)(F)F)c1C : 50

I need Herbicidal rate (%) Monochoria vaginalis for every entry listed below, if you could help.
1. Cc1c(Cc2ccccc2N(C(=O)C2CC2)S(=O)(=O)C(F)(F)F)c(=O)on1C(C)(C)C
2. Cc1c(Cc2ccccc2NS(=O)(=O)C(F)(F)F)c(=O)on1Cc1ccc(F)cc1
3. Cc1c(Cc2ccccc2N(S(C)(=O)=O)S(=O)(=O)C(F)(F)F)c(=O)on1Cc1ccc(F)cc1

1: 90; 2: 100; 3: 100

Kindly give each listed record's Herbicidal rate (%) Monochoria vaginalis.
1. CCS(=O)(=O)N(c1ccccc1Cc1c(C)n(C(C)c2ccccc2)oc1=O)S(=O)(=O)C(F)(F)F (stereo not drawn)
2. Cc1c(Cc2ccccc2N(S(=O)(=O)C(F)(F)F)S(=O)(=O)C(F)(F)F)c(=O)on1C(C)C1CC1 (stereo not drawn)

90
100

* * *

test system: broad leaf weeds (Lindernia pyxidaria and Monochoria vaginalis); test: Test Example 1: herbicidal effect test by treatment of rice paddy soil (immediately after seeding); assay type: in vivo; conditions: Monochoria vaginalis, 120 g/10a active ingredient, dry weight vs untreated area, 14 days after treatment
# binarize Herbicidal rate (%) Monochoria vaginalis: threshold 90% inclusive, high side 1.0, low side 0.0

Use the examples below as a reference point.
C=CCn1oc(=O)c(Cc2ccccc2N(S(=O)(=O)C(F)(F)F)S(=O)(=O)C(F)(F)F)c1C [Compound 1-985] : 0.0
Cc1c(Cc2ccccc2N(S(=O)(=O)C(F)(F)F)S(=O)(=O)C(F)(F)F)c(=O)on1CC1CC1 [Compound 1-991] : 1.0

Decide: Herbicidal rate (%) Monochoria vaginalis of Cc1c(Cc2ccccc2NS(=O)(=O)C(F)(F)F)c(=O)on1Cc1ccc(C(C)(C)C)cc1 [Compound 1-192] >= 90%?
1.0

Answer whether Herbicidal rate (%) Monochoria vaginalis of Cc1c(Cc2ccccc2N(S(=O)(=O)C(F)(F)F)S(=O)(=O)C(F)(F)F)c(=O)on1CCCc1ccccc1 [Compound 1-1048] is greater than or equal to 90%.
0.0

Say whether CC(C)c1c(Cc2ccccc2NS(=O)(=O)C(F)(F)F)c(=O)on1C(C)C [Compound 1-68] shows Herbicidal rate (%) Monochoria vaginalis of 90% or more.
0.0

Herbicidal rate (%) Monochoria vaginalis >= 90% for C#CCn1oc(=O)c(Cc2ccccc2NS(=O)(=O)C(F)(F)F)c1C [Compound 1-138] ?
1.0

Textbook exercise: given the entry Cc1c(Cc2ccccc2NS(=O)(=O)C(F)(F)F)c(=O)on1CCOCC(C)C [Compound 1-156] , state whether its Herbicidal rate (%) Monochoria vaginalis is greater than or equal to 90%.
0.0

In plain terms: is recorded Herbicidal rate (%) Monochoria vaginalis at least 90% for Cc1c(Cc2ccccc2NS(=O)(=O)C(F)(F)F)c(=O)on1C(C)C [Compound 1-100] ?
1.0

Is the recorded value of Herbicidal rate (%) Monochoria vaginalis equal to or greater than 90% for this molecule? Cc1c(Cc2ccccc2N(C(=O)OCC(C)C)S(=O)(=O)C(F)(F)F)c(=O)on1C [Compound 1-666]
1.0
